Biological target: cyclin B/CDK1 enzyme (Homo sapiens)
Construct: purchased New England BioLabs; host or cells: Sf9 insect cells, recombinant baculovirus
Sequence (P06493 whole entry): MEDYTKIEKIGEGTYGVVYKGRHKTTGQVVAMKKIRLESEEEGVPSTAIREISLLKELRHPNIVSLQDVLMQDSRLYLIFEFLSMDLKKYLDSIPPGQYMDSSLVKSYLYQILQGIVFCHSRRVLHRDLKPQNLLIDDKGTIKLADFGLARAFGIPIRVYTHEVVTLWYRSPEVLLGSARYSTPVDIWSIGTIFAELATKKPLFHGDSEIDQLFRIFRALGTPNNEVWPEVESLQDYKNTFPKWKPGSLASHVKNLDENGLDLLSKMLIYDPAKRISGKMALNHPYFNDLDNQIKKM
Sequence (P14635 whole entry partner): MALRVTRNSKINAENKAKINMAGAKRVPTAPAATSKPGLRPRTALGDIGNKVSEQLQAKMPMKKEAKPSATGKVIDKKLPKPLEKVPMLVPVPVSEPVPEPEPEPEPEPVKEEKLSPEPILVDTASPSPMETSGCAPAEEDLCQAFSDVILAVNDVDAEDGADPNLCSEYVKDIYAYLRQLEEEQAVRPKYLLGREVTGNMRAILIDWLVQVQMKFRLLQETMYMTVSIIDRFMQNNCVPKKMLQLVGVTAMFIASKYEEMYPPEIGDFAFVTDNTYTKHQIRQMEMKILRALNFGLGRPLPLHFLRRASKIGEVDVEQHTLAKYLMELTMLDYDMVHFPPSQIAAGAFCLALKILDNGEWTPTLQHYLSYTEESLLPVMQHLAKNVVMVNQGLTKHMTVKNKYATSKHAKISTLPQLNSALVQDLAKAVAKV
Test: CDK1 ELISA kinase assay (phospho-Rb ser 795 detection)
Assay type: biochemical
Details: In Vitro Enzyme Assay, cyclin B/CDK1, read-out: CDK1 IC50
quantity: pIC50
The meaning of pIC50 here: minus log10 of the concentration in molar units.

Example entries and their recorded answers appear below.
> print(dat)
                                   compound  value
1  CN1CCN(c2ccc(CN/C=C3\C(=O)NC(=O)c4ccc(I)cc43)cc2O)CC1   5.59
2  O=C1NC(=O)c2ccc(I)cc2/C1=C/NCc1ccn(-c2ccccc2)c(=O)c1 [Example 517]   4.53
3  O=C1NC(=O)c2ccccc2/C1=C/Nc1ccc(CN2CCCC2)cc1   4.86
4  CN1CCN(c2ccc(N/C=C3\C(=O)NC(=O)c4ccc(-c5ccoc5)cc43)c(F)n2)CC1 [Example 498]   4.71
5  CN1CCN(c2ccc(NC=C3C(=O)NC(=O)c4ccc(-c5ccc6[nH]ccc6c5)cc43)cc2)CC1   4.93

Could you tell me which pIC50 is on file for "O=C1NC(=O)c2ccc(I)cc2/C1=C/NCc1ccn(-c2ccoc2)c(=O)c1" ? 4.94

Name the recorded pIC50 for "CN1CCN(c2cnc(N/C=C3\C(=O)NC(=O)c4ccc(-c5ccoc5)cc43)cn2)CC1" . 5.66

What does the data say about its pIC50? Entry: "O=C1NC(=O)c2ccc(I)cc2/C1=C/NCc1cc(O)c(-c2ccccc2)cn1" 4.55

I'd like to know its pIC50. The compound in question is "CC(C)CC(=O)Nc1ccc(CN/C=C2\C(=O)NC(=O)c3ccccc32)cc1" 4.35

###

Assay: I.V. and P.O. Dosing in Mice
Type: in vivo
Conditions: mouse, in vivo, iv, 2 mg/kg, dose i.v. 2 mg/kg, second value, (methocel/tween), read-out: aucinf obs (i.v.)
quantity: AUC(0-inf) (ng·h/mL)
Hi! Could you send only the number? It should be in ng·h/mL, unit omitted.

Return reported AUC(0-inf); argument: "CCCOc1cnc(CNC=C2C(=O)NC(=O)c3ccc(I)cc32)cc1O" 15800

###

Known IC50 of a selection of compounds
Molecular target: cyclin E/CDK2 enzyme (Homo sapiens, UniProt P24941)
Construct: made in house; host or cells: Sf9 insect cells, recombinant baculovirus
Test: CDK2 ELISA kinase assay (phospho-Rb ser 795 detection)
Format: biochemical
Conditions: In Vitro Enzyme Assays, read-out: CDK2 IC50
Give the number; µM is assumed, so skip it.

These solved cases illustrate the format of a correct answer.
> print(dat)
                                   compound  value
1  O=C1NC(=O)c2ccc(Br)cc2/C1=C/NCc1ccc(NC(=O)C(Cl)Cl)c(O)c1      4
2  CC(=O)Nc1ccc(CN/C=C2\C(=O)NC(=O)c3ccc(I)cc32)cc1OC(C)=O    8.6
3   COc1ccc(N/C=C2\C(=O)NC(=O)c3ccccc32)cc1   18.9

Quick one: IC50 for "COc1cc(CN/C=C2\C(=O)NC(=O)c3ccc(-c4ccc(Cl)cc4)cc32)cc(O)c1OC" ? 37.2

Query (compound): "CC1(C)Oc2cc(CN/C=C3\C(=O)NC(=O)c4ccc(Br)cc43)cc(O)c2O1" ; field requested: IC50 4

Any idea what IC50 was measured for CC(O)C1CCCN1Cc1ccc(N/C=C2\C(=O)NC(=O)c3ccc(I)cc32)cc1 (single isomer, unassigned) ? 37.1

###

Where a name gives a salt, the structure may show the parent alone.
quantity: melting point

Before answering, review these 3 worked examples.
> print(dat)
                                   compound                 value
1  CN1CCN(c2ccc(N/C=C3\C(=O)NC(=O)c4ccc(C#CCOC5CCCCO5)cc43)cc2)CC1 (stereo not shown) [Example 161]         175 to 176 °C
2  COc1coc(CNC=C2C(=O)NC(=O)c3ccc(Br)cc32)cc1=O [Example 316]  259 to 261 °C (dec.)
3  COc1ccc(CN/C=C2\C(=O)NC(=O)c3ccc(NS(=O)(=O)c4ccccc4)cc32)cc1O [Example 196]         245 to 246 °C

Name the reported melting point value associated with the compound O=C1NC(=O)c2ccc(-c3cccc(O)c3)cc2/C1=C/Nc1ccc(CN2CCCCC2)cc1 [Example 96] 235 to 236 °C

I am curious: what melting point value has been reported for O=C1NC(=O)c2ccc(I)cc2/C1=C/NCc1cc(O)c(-c2ccoc2)cn1 [Example 527] ? 213 to 228 °C (dec.)

Report melting point for COc1cnc(CN/C=C2\C(=O)NC(=O)c3ccc(Br)cc32)cc1O [Example 332] please. 209 to 211 °C (dec.)

Quick one: melting point of CC(=O)Nc1ccc2c(c1)/C(=C/Nc1ccc(CN3CCCCC3)cc1)C(=O)NC2=O [Example 48] ? > 320 °C

// query melting point value for entry "CN1CCN(c2ccc(N/C=C3\C(=O)NC(=O)c4ccccc43)cc2)CC1" 245 to 246 °C

Reported melting point for CN1CCN(c2ccc(N/C=C3\C(=O)NC(=O)c4ccc(-c5ccc(F)cc5)cc43)cc2)CC1 (as salt: sodium) [Example 263] : what is it? 228 to 229 °C

###

Target: cyclin E/CDK2 enzyme (Homo sapiens)
Construct: made in house; host or cells: Sf9 insect cells, recombinant baculovirus
Assay: CDK2 ELISA kinase assay (phospho-Rb ser 795 detection)
Type: biochemical
Conditions: In Vitro Enzyme Assays, read-out: CDK2 IC50
Each entry below lists one item and its recorded IC50 value.
The reply should contain only the number, in µM.

> print(dat)
                             chemicalsmiles  unitinfo  value
1  CCCOc1ccc(CN/C=C2\C(=O)NC(=O)c3ccc(Br)cc32)cc1C(=O)O        µM     12

Requested field: IC50. Item: "CN1CCN(c2ccc(N/C=C3\C(=O)NC(=O)c4ccc(Br)cc43)nc2)CC1" 25.3

###

System: LoVo
Experiment: Cytotoxicity assay (SRB), LoVo
Assay type: cell-based
Details: Homo sapiens, LoVo, 72 h, LoVo cells, 3 days, SRB; read-out: In Vitro Cellular Activity IC50 LOVO
Below, each of the molecules is paired with its reported IC50 value.

Here are 2 molecules together with their reported answers.
> print(dat)
                             chemicalsmiles    value
1  N#CCc1ccc(NC=C2C(=O)NC(=O)c3ccc(-c4ccccc4Cl)cc32)cc1  > 50 µM
2  COCCn1ccc(-c2ccc3c(c2)C(=CNc2ccc(N4CCN(C)CC4)cc2)C(=O)NC3=O)c1  > 50 µM

Let us move to another entry and its IC50.
Would you mind telling me what IC50 value was observed for "CCN(CC)CCn1ccc2cc(-c3ccc4c(c3)C(=CNc3ccc(N5CCN(C)CC5)cc3)C(=O)NC4=O)ccc21" ? > 50 µM

###

Target: cyclin E/CDK2 enzyme (Homo sapiens, UniProt P24941)
Construct: made in house; host or cells: Sf9 insect cells, recombinant baculovirus
Assay: CDK2 ELISA kinase assay (phospho-Rb ser 795 detection)
Type: biochemical
Conditions: In Vitro Enzyme Assay, cyclin E/CDK2, read-out: CDK2 IC50
pIC50: −log10 of the molar value.
The entries below come with measured pIC50 values attached.

Take a look at these entries with their results.
> print(dat)
                             chemicalsmiles                              targetsystem   value
1  CN1CCN(c2cnc(N/C=C3\C(=O)NC(=O)c4ccc(-c5ccoc5)cc43)cn2)CC1  cyclin E/CDK2 enzyme (Homo sapiens, UniProt P24941)  < 4.30
2  CN1CCN(c2ccc(NC=C3C(=O)NC(=O)c4ccc(-c5ccc[nH]5)cc43)cc2)CC1  cyclin E/CDK2 enzyme (Homo sapiens, UniProt P24941)  < 4.30

Bench note: what pIC50 did "O=C1NC(=O)c2ccc(I)cc2/C1=C/Nc1ccc(CN2CCS(=O)(=O)CC2)cc1" show? < 4.30

###

Biological target: cyclin D1/cdk 4 enzyme (Homo sapiens, UniProt P11802)
Construct: made in house; host or cells: Sf9 insect cells, recombinant baculovirus
Sequence (P11802 whole entry, species assumed): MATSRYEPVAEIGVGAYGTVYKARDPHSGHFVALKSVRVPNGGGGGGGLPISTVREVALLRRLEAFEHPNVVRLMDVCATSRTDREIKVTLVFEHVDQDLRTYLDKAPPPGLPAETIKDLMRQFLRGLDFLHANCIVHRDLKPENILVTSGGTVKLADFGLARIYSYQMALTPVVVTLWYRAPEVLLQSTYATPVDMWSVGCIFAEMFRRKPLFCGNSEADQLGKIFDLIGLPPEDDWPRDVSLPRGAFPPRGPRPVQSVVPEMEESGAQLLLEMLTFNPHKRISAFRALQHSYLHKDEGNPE
Sequence (P24385 whole entry partner, species assumed): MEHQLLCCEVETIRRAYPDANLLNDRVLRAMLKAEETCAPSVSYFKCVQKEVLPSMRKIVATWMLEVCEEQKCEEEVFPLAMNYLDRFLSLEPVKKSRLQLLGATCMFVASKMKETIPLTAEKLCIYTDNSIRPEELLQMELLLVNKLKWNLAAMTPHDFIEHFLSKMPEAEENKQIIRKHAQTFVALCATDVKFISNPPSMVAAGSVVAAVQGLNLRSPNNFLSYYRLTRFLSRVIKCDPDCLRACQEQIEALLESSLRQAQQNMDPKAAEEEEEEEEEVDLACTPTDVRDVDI
Assay: CDK4 ELISA kinase assay (phospho-Rb ser 795 detection)
Assay type: biochemical
Conditions: In Vitro Enzyme Assay, cyclin D1/cdk 4, read-out: CDK4 IC50
quantity: log10 IC50 (log10 of the value in nM)
Use the decimal logarithm of IC50 (nM).

Consider the reported log10 IC50 for these compounds:
> print(dat)
                             chemicalsmiles    quantity  value
1  N#CCc1ccc(NC=C2C(=O)NC(=O)c3ccc(-c4ccc(C#N)cc4)cc32)cc1  log10 IC50   3.91
2  O=C(O)C=Cc1ccc(-c2ccc3c(c2)C(=CNCc2ccc(O)c(O)c2)C(=O)NC3=O)cc1  log10 IC50   2.30
3  N#CCc1ccc(NC=C2C(=O)NC(=O)c3ccc(-c4cccc(F)c4)cc32)cc1  log10 IC50   4.10
4  CN1CCN(c2ccc(NC=C3C(=O)NC(=O)c4ccc(C=CCCCCO)cc43)cc2)CC1  log10 IC50   3.40

Recorded log10 IC50 for "CCNCC1CCN(c2ccc(N/C=C3\C(=O)NC(=O)c4ccc(I)cc43)cc2)CC1" , please? 2.67
